Assignment: determine reported pIC50 for the given compounds.
target: PLK1 (Homo sapiens); construct: Full-length, active GST-PLK1 is purified from Sf9 insect cells; made in house; host or cells: Sf9 insect cells; experiment: Biochemical Characterization Assay: HTRF kinase assay, GST-PLK1 phosphorylation of GST-p53; conditions: GST-PLK1, GST-p53 substrate
Sequence (P53350 whole entry): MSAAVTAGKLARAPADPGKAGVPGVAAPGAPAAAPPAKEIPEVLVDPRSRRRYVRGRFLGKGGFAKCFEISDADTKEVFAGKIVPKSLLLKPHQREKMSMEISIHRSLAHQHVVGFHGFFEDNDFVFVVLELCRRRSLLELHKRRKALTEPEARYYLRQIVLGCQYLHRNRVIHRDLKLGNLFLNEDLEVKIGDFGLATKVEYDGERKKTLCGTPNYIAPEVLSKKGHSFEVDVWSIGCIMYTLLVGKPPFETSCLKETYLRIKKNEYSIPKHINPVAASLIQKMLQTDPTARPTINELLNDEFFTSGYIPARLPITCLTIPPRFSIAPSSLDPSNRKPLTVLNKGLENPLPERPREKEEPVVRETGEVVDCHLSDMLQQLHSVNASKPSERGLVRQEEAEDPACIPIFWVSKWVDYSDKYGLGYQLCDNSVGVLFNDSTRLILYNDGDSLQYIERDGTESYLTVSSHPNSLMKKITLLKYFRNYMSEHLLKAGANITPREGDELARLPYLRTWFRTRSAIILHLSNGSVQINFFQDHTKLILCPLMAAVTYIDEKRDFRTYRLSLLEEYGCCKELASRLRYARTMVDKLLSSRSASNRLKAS
pIC50: −log10 of the molar value.

Can you look up the measured pIC50 of COc1cc(C(=O)NCCN(C)C)c(F)cc1Nc1ncc2c(n1)N(C1CCCC1)CC(F)(F)C(=O)N2C [Example I-174] for me?
7.30 to 9.00

Can you look up the measured pIC50 of CN1C(=O)C(F)(F)CN(C2CCCC2)c2nc(Nc3cc(F)c(C(=O)NC4CCNCC4)cc3F)ncc21 [Example I-240] for me?
7.30 to 9.00

Can you look up the measured pIC50 of COc1cc(C(=O)NC2CCN(C)CC2)ccc1Nc1ncc2c(n1)N(C1CCCC1)CC(Cl)(Cl)C(=O)N2C [Example I-298] for me?
7.30 to 9.00

Can you look up the measured pIC50 of CN1C(=O)C(F)(F)CN(C2CCCC2)c2nc(Nc3cc(F)c(C(N)=O)cc3F)ncc21 [Example I-241] for me?
7.30 to 9.00

Can you look up the measured pIC50 of CNC(=O)c1ccc(Nc2ncc3c(n2)N(CCc2ccccc2)CC(F)(F)C(=O)N3C)c(OC)c1 [Example I-278] for me?
6.30 to 7.29

Can you look up the measured pIC50 of COc1cc(C(=O)NCCN(C)C)ccc1Nc1ncc2c(n1)N(C1CCCCC1)CC(F)(F)C(=O)N2C [Example I-253] for me?
7.30 to 9.00

Can you look up the measured pIC50 of CCOc1cc(C(=O)NC2CCNCC2)ccc1Nc1ncc2c(n1)N(C1CCCC1)CC(F)(F)C(=O)N2C [Example I-222] for me?
7.30 to 9.00

Can you look up the measured pIC50 of CCN1C(=O)C(F)(F)CN(C2CCCC2)c2nc(Nc3ccc(C(=O)NCCCN(C)C)cc3OC)ncc21 [Example I-160] for me?
6.30 to 7.29

Can you look up the measured pIC50 of COc1cc(C(=O)NCCCN(C)C)c(F)cc1Nc1ncc2c(n1)N(C1CCCC1)CC(F)(F)C(=O)N2C [Example I-172] for me?
7.30 to 9.00

Can you look up the measured pIC50 of COc1cc(C(N)=O)ccc1Nc1ncc2c(n1)N(C(C)C)CC(F)(F)C(=O)N2C [Example I-294] for me?
7.30 to 9.00

Can you look up the measured pIC50 of COc1cc(C(=O)O)ccc1Nc1ncc2c(n1)N(C(C)C)CC(F)(F)C(=O)N2C [Example I-292] for me?
6.30 to 7.29

Can you look up the measured pIC50 of CN(C)CCCNC(=O)c1cc(F)c(Nc2ncc3c(n2)N(C2CCCC2)CC(F)(F)C(=O)N3C)cc1F [Example I-237] for me?
7.30 to 9.00

Can you look up the measured pIC50 of CNC(=O)c1ccc(Nc2ncc3c(n2)N(C2CCCCC2)CC(F)(F)C(=O)N3C)cc1 [Example I-258] for me?
7.30 to 9.00

Can you look up the measured pIC50 of COc1cc(C(N)=O)c(F)cc1Nc1ncc2c(n1)N(C1CCCC1)CC(F)(F)C(=O)N2C [Example I-170] for me?
7.30 to 9.00

Can you look up the measured pIC50 of COc1cc(C(N)=O)ccc1Nc1ncc2c(n1)N(CCCc1ccccc1)CC(F)(F)C(=O)N2C [Example I-283] for me?
6.30 to 7.29
